These entries and their values trace back to patent US6740644B2.

target: A3 receptor (Homo sapiens, UniProt P0DMS8); assay: Reporter gene experiments: A3 receptor gene assay, ECR relative to NECA; conditions: ECR = concentration ratio relative to NECA = 1
Quantity: A3 Receptor Gene Assay ECR
Hey, just send me the number, nothing else.

[
  {
    "Compound": "CCOC(=O)N1CCC(Nc2ncnc3c2ncn3[C@@H]2O[C@H](COC)[C@@H](O)[C@H]2O)CC1 [Example 23]",
    "Value": 162
  }
]

Q. Name the reported A3 Receptor Gene Assay ECR value associated with the compound COC[C@H]1O[C@@H](n2cnc3c(NC4CCOCC4)ncnc32)[C@H](O)[C@@H]1O [Example 2]
A. 180

---

melting point values, listed per item

Q. // lookup melting point for COC[C@H]1O[C@@H](n2cnc3c(N[C@@H]4CCC[C@H]4O)ncnc32)[C@H](O)[C@@H]1O
A. 202 to 204 °C

Q. Form field: reported melting point of COC[C@H]1O[C@@H](n2cnc3c(Nc4ccc(O)c(Cl)c4)ncnc32)[C@H](O)[C@@H]1O
A. 225 to 230 °C

Q. // query melting point value for entry COC[C@H]1O[C@@H](n2cnc3c(NC4CCOCC4)ncnc32)[C@H](O)[C@@H]1O
A. 133 to 134 °C

Q. Bench note: what melting point did COC[C@H]1O[C@@H](n2cnc3c(N[C@H](C)CO)ncnc32)[C@H](O)[C@@H]1O show?
A. 232 to 233 °C

---

target: human adenosine A1 receptor (Homo sapiens); construct: expressed in transfected cells; host or cells: Chinese hamster ovary (CHO) cells containing the CRE/SPAP/HYG reporter gene; experiment: Reporter gene experiments: inhibition of forskolin-stimulated SPAP production in CHO cells (CRE/SPAP/HYG), A1; assay type: cell-based; settings: ECR = concentration ratio relative to NECA = 1, CHO cells co-expressing human adenosine A1 receptor
Sequence (P30542 whole entry): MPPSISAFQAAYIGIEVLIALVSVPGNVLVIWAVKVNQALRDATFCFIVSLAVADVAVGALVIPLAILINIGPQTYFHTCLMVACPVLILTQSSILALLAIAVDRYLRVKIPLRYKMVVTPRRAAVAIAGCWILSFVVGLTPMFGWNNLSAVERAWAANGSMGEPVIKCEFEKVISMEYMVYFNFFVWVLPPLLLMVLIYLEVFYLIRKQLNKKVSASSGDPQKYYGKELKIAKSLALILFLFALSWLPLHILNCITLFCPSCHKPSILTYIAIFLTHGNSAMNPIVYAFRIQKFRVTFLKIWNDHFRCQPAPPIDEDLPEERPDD
Each entry gets Criterion not met if its A1 Receptor Gene Assay ECR stays under 2, and Criterion met if its A1 Receptor Gene Assay ECR is 2 or above.

Answered cases to consult:
[
  {
    "Smiles": "CNS(=O)(=O)CCNc1nc(C)nc2c1ncn2[C@@H]1O[C@H](COC)[C@@H](O)[C@H]1O",
    "Measured Target": "human adenosine A1 receptor (Homo sapiens)",
    "Class": "Criterion not met"
  },
  {
    "Smiles": "COC[C@H]1O[C@@H](n2cnc3c(N[C@H](C)Cc4ccccc4)ncnc32)[C@H](O)[C@@H]1O",
    "Measured Target": "human adenosine A1 receptor (Homo sapiens)",
    "Class": "Criterion not met"
  },
  {
    "Smiles": "COC[C@H]1O[C@@H](n2cnc3c(NC4CCCC4)nc(C)nc32)[C@H](O)[C@@H]1O",
    "Measured Target": "human adenosine A1 receptor (Homo sapiens)",
    "Class": "Criterion met"
  },
  {
    "Smiles": "COC[C@H]1O[C@@H](n2cnc3c(N[C@@H]4CCC[C@H]4O)ncnc32)[C@H](O)[C@@H]1O",
    "Measured Target": "human adenosine A1 receptor (Homo sapiens)",
    "Class": "Criterion met"
  },
  {
    "Smiles": "COC[C@H]1O[C@@H](n2cnc3c(NCC4CC4)nc(C)nc32)[C@H](O)[C@@H]1O",
    "Measured Target": "human adenosine A1 receptor (Homo sapiens)",
    "Class": "Criterion met"
  }
]

Q. A1 Receptor Gene Assay ECR >= 2 for COC[C@H]1O[C@@H](n2cnc3c(Nc4ccc(O)c(Cl)c4)ncnc32)[C@H](O)[C@@H]1O ?
A. Criterion met

Q. Answer whether A1 Receptor Gene Assay ECR of COC[C@H]1O[C@@H](n2cnc3c(NC4CCOCC4)ncnc32)[C@H](O)[C@@H]1O is greater than or equal to 2.
A. Criterion met

Q. Decide: is the reported value of A1 Receptor Gene Assay ECR for CCOC(=O)N1CCC(Nc2ncnc3c2ncn3[C@@H]2O[C@H](COC)[C@@H](O)[C@H]2O)CC1 equal to or greater than 2?
A. Criterion met

Q. Is the recorded value of A1 Receptor Gene Assay ECR equal to or greater than 2 for this compound? COC[C@H]1O[C@@H](n2cnc3c(NC(C)(C)C)ncnc32)[C@H](O)[C@@H]1O
A. Criterion not met

---

Molecular target: UniProt P0DMS8
Sequence (P0DMS8 1-318): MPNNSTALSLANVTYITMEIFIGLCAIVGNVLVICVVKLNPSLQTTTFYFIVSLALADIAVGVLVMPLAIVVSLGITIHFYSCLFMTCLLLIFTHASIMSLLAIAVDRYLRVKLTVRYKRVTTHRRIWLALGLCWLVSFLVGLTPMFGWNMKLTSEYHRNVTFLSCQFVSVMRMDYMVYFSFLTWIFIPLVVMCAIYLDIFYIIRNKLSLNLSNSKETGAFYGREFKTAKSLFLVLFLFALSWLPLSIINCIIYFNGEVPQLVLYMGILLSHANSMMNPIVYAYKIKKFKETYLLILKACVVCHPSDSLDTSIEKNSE
Test: Reporter gene experiments: A3 receptor gene assay, ECR relative to NECA
Settings: ECR = concentration ratio relative to NECA = 1
// reported A3 Receptor Gene Assay ECR for each item listed

// worked examples, A3 Receptor Gene Assay ECR included
[
  {
    "Compound": "COC[C@H]1O[C@@H](n2cnc3c(Nc4ccc(O)c(Cl)c4)ncnc32)[C@H](O)[C@@H]1O [Example 5]",
    "Measured Target": "UniProt P0DMS8",
    "A3 Receptor Gene Assay ECR": ">116"
  },
  {
    "Compound": "COC[C@H]1O[C@@H](n2cnc3c(N[C@H](C)Cc4ccccc4)ncnc32)[C@H](O)[C@@H]1O [Example 6]",
    "Measured Target": "UniProt P0DMS8",
    "A3 Receptor Gene Assay ECR": 5.00
  },
  {
    "Compound": "COC[C@H]1O[C@@H](n2cnc3c(N[C@@H]4CCOC4)ncnc32)[C@H](O)[C@@H]1O [Example 1]",
    "Measured Target": "UniProt P0DMS8",
    "A3 Receptor Gene Assay ECR": ">129"
  }
]

Kindly review the next compound as well.
Q. Any idea what its A3 Receptor Gene Assay ECR is? The compound is COC[C@H]1O[C@@H](n2cnc3c(NC(C)(C)C)ncnc32)[C@H](O)[C@@H]1O [Example 19, N-tert-Butyl-5′-O-methyl-adenosine]
A. >243

---

biological target: A3 receptor (Homo sapiens, UniProt P0DMS8); test: Reporter gene experiments: A3 receptor gene assay, ECR relative to NECA; conditions: ECR = concentration ratio relative to NECA = 1
Note to self: use 1 (yes) only for A3 Receptor Gene Assay ECR readings below 100; a reading exactly at 100 still gets 0 (no).

Please review the entries below; each comes with its answer.
[
  {
    "Molecule": "COC[C@H]1O[C@@H](n2cnc3c(NC4CCCC4)nc(C)nc32)[C@H](O)[C@@H]1O",
    "Class": "0 (no)"
  },
  {
    "Molecule": "COC[C@H]1O[C@@H](n2cnc3c(N[C@H]4CCC[C@@H]4OC)ncnc32)[C@H](O)[C@@H]1O",
    "Class": "0 (no)"
  },
  {
    "Molecule": "CNS(=O)(=O)CCNc1nc(C)nc2c1ncn2[C@@H]1O[C@H](COC)[C@@H](O)[C@H]1O",
    "Class": "0 (no)"
  },
  {
    "Molecule": "COC[C@H]1O[C@@H](n2cnc3c(N[C@H]4CCC[C@@H]4F)ncnc32)[C@H](O)[C@@H]1O",
    "Class": "1 (yes)"
  },
  {
    "Molecule": "COC[C@H]1O[C@@H](n2cnc3c(N[C@@H]4C[C@@H]5CC[C@H]4C5)ncnc32)[C@H](O)[C@@H]1O (relative stereo)",
    "Class": "0 (no)"
  },
  {
    "Molecule": "COC[C@H]1O[C@@H](n2cnc3c(N[C@@H]4CCC[C@H]4O)ncnc32)[C@H](O)[C@@H]1O",
    "Class": "1 (yes)"
  }
]

# ---- query molecule ----
Q. A3 Receptor Gene Assay ECR strictly < 100 for this molecule? COC[C@H]1O[C@@H](n2cnc3c(N[C@@H]4CCO[C@H]4C)ncnc32)[C@H](O)[C@@H]1O
A. 0 (no)
